Items are presented alongside their recorded IC50.
Tested on: Escherichia coli
measurement_protocol: Antibacterial activity against Escherichia coli ATCC 15022 measured after 24 hrs
Type: functional
stated_conditions: ATCC 15022, 24 h
reported_endpoint: IC50

• CCCCC(=O)c1c(O)cc(CCCC)oc1=O = 223 µg/mL
• CCCCCCc1c(O)cc(CCCCC)oc1=O = > 1000 µg/mL
• CCc1c(O)cc(C)oc1=O = 300 µg/mL
• CCCCCC(=O)c1c(O)cc(CCCCC)oc1=O = > 1000 µg/mL
• CCCc1c(O)cc(CC)oc1=O = 278 µg/mL
• CCCCCCCc1c(O)cc(CCCCCC)oc1=O = > 1000 µg/mL
• CCCCCCCCCc1c(O)cc(CCCCCCCC)oc1=O = > 1000 µg/mL
• CCCCCCCCc1c(O)cc(CCCCCCC)oc1=O = > 1000 µg/mL
• CCCC(=O)c1c(O)cc(CCC)oc1=O = 248 µg/mL
• CCC(=O)c1c(O)cc(CC)oc1=O = 257 µg/mL
• CCCCCCC(=O)c1c(O)cc(CCCCCC)oc1=O = > 1000 µg/mL
• CCCCCc1c(O)cc(CCCC)oc1=O = > 1000 µg/mL
• CCCCCCCCC(=O)c1c(O)cc(CCCCCCCC)oc1=O = > 1000 µg/mL
• CCCCc1c(O)cc(CCC)oc1=O = > 1000 µg/mL
• CCCCCCCc1cc(O)c(CCCCCC)c(=O)o1 = > 1000 µg/mL
• CCCCCCCC(=O)c1c(O)cc(CCCCCCC)oc1=O = > 1000 µg/mL
